target: Cytochrome P450 3A4 (Homo sapiens, UniProt P08684); experiment: Inhibition of recombinant human CYP3A4 using testosterone as substrate by LC-MS/MS analysis; type: ADME
Sequence (P08684 whole entry): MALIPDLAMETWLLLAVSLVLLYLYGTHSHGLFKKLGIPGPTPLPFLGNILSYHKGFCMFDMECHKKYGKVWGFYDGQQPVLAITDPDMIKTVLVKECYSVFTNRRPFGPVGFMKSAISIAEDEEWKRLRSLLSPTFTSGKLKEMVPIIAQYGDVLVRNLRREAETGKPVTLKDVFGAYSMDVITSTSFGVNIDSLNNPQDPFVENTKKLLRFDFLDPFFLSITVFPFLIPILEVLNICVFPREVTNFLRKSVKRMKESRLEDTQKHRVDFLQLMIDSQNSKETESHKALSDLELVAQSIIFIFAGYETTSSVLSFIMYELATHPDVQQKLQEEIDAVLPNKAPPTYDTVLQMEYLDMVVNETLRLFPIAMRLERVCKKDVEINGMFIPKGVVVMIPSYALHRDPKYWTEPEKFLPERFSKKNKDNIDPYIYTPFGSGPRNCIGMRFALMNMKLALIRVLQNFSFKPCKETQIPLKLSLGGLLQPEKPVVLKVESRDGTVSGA
property_label: IC50

Recall the reported IC50 of C[C@H]1Cn2cnc(C(=O)N[C@H](C)C(F)(F)F)c2CN1C(=O)Nc1ccc(F)c(C#N)c1 on Cytochrome P450 3A4 (Homo sapiens, UniProt P08684) and write it down. > 30 µM

====

target: Voltage-gated inwardly rectifying potassium channel KCNH2 (Homo sapiens, UniProt Q12809); assay: Inhibition of human ERG by LC-MS/MS analysis; assay type: toxicity
Sequence (Q12809 whole entry): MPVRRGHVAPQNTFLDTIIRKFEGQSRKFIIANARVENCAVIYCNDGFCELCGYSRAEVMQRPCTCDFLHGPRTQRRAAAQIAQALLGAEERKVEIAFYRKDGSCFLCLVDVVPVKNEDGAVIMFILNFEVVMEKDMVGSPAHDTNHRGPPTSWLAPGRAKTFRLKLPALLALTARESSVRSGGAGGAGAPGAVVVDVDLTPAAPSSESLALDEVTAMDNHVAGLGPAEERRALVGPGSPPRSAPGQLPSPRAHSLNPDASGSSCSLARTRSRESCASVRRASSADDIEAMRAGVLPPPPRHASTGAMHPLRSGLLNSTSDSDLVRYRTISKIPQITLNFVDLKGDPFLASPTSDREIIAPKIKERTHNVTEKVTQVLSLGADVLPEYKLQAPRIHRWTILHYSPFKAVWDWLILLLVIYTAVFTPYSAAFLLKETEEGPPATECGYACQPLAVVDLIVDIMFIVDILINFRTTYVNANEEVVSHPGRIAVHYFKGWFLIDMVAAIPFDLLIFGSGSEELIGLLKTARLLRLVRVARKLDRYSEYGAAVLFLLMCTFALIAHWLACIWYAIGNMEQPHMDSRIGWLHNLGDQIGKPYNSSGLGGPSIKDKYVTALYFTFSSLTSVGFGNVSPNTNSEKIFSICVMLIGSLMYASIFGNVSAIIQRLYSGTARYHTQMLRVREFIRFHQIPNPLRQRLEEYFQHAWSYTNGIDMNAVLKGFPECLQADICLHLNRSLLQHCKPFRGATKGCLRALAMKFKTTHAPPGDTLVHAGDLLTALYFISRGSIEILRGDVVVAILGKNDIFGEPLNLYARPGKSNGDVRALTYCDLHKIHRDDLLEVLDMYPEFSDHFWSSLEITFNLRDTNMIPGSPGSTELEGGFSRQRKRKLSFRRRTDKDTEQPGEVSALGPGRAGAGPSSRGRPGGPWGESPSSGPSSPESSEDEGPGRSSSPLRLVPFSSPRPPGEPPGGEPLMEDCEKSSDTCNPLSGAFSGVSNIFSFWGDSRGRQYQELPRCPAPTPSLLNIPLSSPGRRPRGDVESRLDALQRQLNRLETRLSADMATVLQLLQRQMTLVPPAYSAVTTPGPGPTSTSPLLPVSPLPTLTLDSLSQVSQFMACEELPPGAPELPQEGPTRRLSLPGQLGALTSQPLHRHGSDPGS
pIC50: −log10 of the molar value.
property_label: pIC50

Annotate the compound C[C@H]1Cn2cnc(C(=O)N[C@H](C)C(F)(F)F)c2CN1C(=O)Nc1ccc(F)c(C#N)c1 with its measured pIC50. < 4.52
